Molecular target: QR2 (Homo sapiens, UniProt P16083)
Sequence (P16083 whole entry): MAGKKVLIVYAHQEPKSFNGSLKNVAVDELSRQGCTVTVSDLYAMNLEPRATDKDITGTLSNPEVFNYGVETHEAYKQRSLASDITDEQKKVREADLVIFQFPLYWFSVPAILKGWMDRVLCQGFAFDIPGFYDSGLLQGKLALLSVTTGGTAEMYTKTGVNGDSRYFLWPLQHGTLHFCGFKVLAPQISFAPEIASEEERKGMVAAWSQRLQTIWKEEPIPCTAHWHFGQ
Test: Cellular thermal shift assay (CETSA) of QR2 in HEK293T cells
Settings: CETSA at 73° C., read-out: EC50 of QR2 stabilization (isothermal dose-response fingerprint)
property.measured: EC50

>>> df
                        structure_as_smiles  value
0  Cc1cccn2cc(-c3cccc(S(=O)(=O)N4CCC(C)CC4)c3)nc12  34 nM
1  Cc1ccc(-c2cn3cccc(C)c3n2)cc1S(=O)(=O)N1CCCC1  13 nM

----------
Biological target: QR2 (Homo sapiens, UniProt P16083)
Assay: QR2 enzymatic activity assay (menadione/BNAH), fluorescence readout
Format: biochemical
Parameters: purchased Sigma-Aldrich
For each record, check the reported IC50: if it is below 3 µM write Satisfied, else write Not satisfied.

In [3]: df
Out[3]:
                                    compound                      assayed_target          class
 0  CCCS(=O)(=O)N1CCCc2cc(NC(=O)c3ccco3)ccc21  QR2 (Homo sapiens, UniProt P16083)  Not satisfied
 1  Cc1ccc(-c2nnc(-c3ccccc3)o2)cc1S(=O)(=O)NCc1cccnc1  QR2 (Homo sapiens, UniProt P16083)  Not satisfied
 2  Cc1ccn2cc(-c3cccc(S(=O)(=O)N4CC(C)CC(C)C4)c3)nc2c1 (stereo not shown)  QR2 (Homo sapiens, UniProt P16083)      Satisfied
 3  Cc1nc(-c2ccc(C)c(S(=O)(=O)N3CCCCCC3)c2)cs1  QR2 (Homo sapiens, UniProt P16083)  Not satisfied
 4  COc1cc(NS(C)(=O)=O)ccc1Cc1c2ccccc2nc2ccccc12  QR2 (Homo sapiens, UniProt P16083)  Not satisfied
 5  Cc1nc(-c2ccc(C)c(S(=O)(=O)NCCCN3CCCC3=O)c2)cs1  QR2 (Homo sapiens, UniProt P16083)  Not satisfied
 6  Cc1cc(-c2ccc(C)c(S(=O)(=O)N3CCC(C)CC3)c2)on1  QR2 (Homo sapiens, UniProt P16083)      Satisfied
 7  Cc1c(-c2nnc(C3CCC3)o2)c(S(=O)(=O)NCc2ccc(Cl)cc2)c(C)n1C  QR2 (Homo sapiens, UniProt P16083)  Not satisfied
 8  Cc1ccn2cc(-c3cccc(S(=O)(=O)N4CCCC4)c3)nc2c1  QR2 (Homo sapiens, UniProt P16083)      Satisfied
 9  Cc1ccc2nc(-c3cccc(S(=O)(=O)N4CC(C)OC(C)C4)c3)cn2c1 (stereo not shown)  QR2 (Homo sapiens, UniProt P16083)  Not satisfied
10              CN(C)S(=O)(=O)c1cccc2ccccc12  QR2 (Homo sapiens, UniProt P16083)  Not satisfied
11  Cc1ccc2nc(-c3cccc(S(=O)(=O)N4CCOCC4)c3)cn2c1  QR2 (Homo sapiens, UniProt P16083)  Not satisfied
12  Cc1cc(-c2ccc(C)c(S(=O)(=O)NCCCN3CCCC3=O)c2)n[nH]1  QR2 (Homo sapiens, UniProt P16083)      Satisfied
13  Cc1cc(-c2ccc(C)c(S(=O)(=O)N3CCN(C(=O)c4ccco4)CC3)c2)on1  QR2 (Homo sapiens, UniProt P16083)      Satisfied
14    Cc1cc(-c2ccc(C)c(S(=O)(=O)N(C)C)c2)on1  QR2 (Homo sapiens, UniProt P16083)      Satisfied
